For each entry below, report its IC50 value.
Tested on: S.mutans OMZ-176
Experiment: Inhibition of bacterial growth (24 h, optical density)
Assay type: cell-based, Streptococcus mutans
Conditions: 50% inhibition in growth, 24 hours, means of triplicate experiments, read-out: ID/50 (the source's name)
Give bare numbers, in mM.

> print(dat)
                 smilestext  endpointunit  datavalue
1  O=S(=O)([O-])[O-].[Zn+2]            mM        7.5

We now examine a further compound.
Quick check: IC50 of [F-].[Na+] ?
16.3

====

Tested on: S.salivarius SS4
Assay: Inhibition of bacterial growth (24 h, optical density)
Type: cell-based, Streptococcus salivarius
Details: 50% inhibition in growth, 24 hours, means of triplicate experiments, read-out: ID/50 (the source's name)
measurementLabel: IC50 (mM)
One number for each entry, in mM.

# example entries with known answers
> print(dat)
                 smilestext  measurementlabel  datavalue
1  O=S(=O)([O-])[O-].[Zn+2]              IC50          6
2   Cl.N.[Cl-].[Cl-].[Zn+2]              IC50        6.5

Request: IC50, test system S.salivarius SS4, entry [F-].[Na+]
13.4
